# targetEntity: T1, HLA-DQ2.5/alpha 2 gliadin peptide complex on Ba/F3 cells (human; wheat)
# T1 construct: also called Ba/F3-HLA-DQ2.5/alpha 2 gliadin peptide
# runDescription: FACS
quantityMeasured: FIG. 30 FACS value (IC17=0, DQN0139bb=100)
In your answer, state the number alone without any accompanying words.

GET /values?readout=FIG. 30 FACS value (IC17=0, DQN0139bb=100)&item= DQN0235ee (antibody, human IgG1, kappa, V domains shown, also called DQN0235He; DQN0235Le) VH: QQQLEESGGGLVKPGGTLTLTCKAGIDFSTYYYMCWVRQAPGKRPEWIACIFDGDGSTYYASWVNGRFTISKASSTTVTLRMTSLTAADTATYFCARSAGGSSSFGYFNLWGPGTLVTVSS VL: AYDMTQTPSSVSAAVGGTVTIKCQASQSISSSYLAWYHQKPGQSPKLLIYSASTLASGVPSRFKGSGSGTEFTLTISDLACADAATYYCQSYYYFSSNAWHTFGGGTKVEIKR 81.3

Consider the binder shown here: DQN0223hh (antibody, human IgG1, kappa, V domains shown, also called DQN0223Lh) VH: QQQLEESGGGLVKPGGTLTLTCKASRIDFSTYYYICWVRQSPWKGLEWIACIYSGDGYTYYPSWAKGRFSISKTSSTTVTLQVTSLTAADTATYFCARSYGGSSASAYFTLWGPGTQVTVSS VL: AVVLTQTASPVSAPVGGTVTIKCQASQSIGSNLGWYQQKPGQPPKLLIYGASALASGVPSRFKGSGSGTQFTLTINDLECADAATYYCQGYYYSSSAEWHSFGGGTKVEIKR What is its recorded FIG. 30 FACS value (IC17=0, DQN0139bb=100)? 46.8

Need FIG. 30 FACS value (IC17=0, DQN0139bb=100), item DQN0282ff (antibody, human IgG1, kappa, V domains shown, also called DQN0282Hf; DQN0282Lf) VH: QSVEESGGRLVTPGTPLTLSCKASGFDFSIYYMSWVRQAPGKGLEWIGVINSGGGVTWYASWVKGRFTISKTSTTVDLKITSPTTEDTATYFCARLGDSNHYDLWGPGTLVTVSS VL: AYDMTQTPSSVSAAVGGTVTIKCQASETISSYLAWYQQKPGQRPQLLIYDASNLASGVPSRFKGSGSGTEFTLTISDLECADAATYYCQTHYYITSTTFGGGTKVEIKR 34.5
